Test system: NCI/ADR-RES ovarian
Experiment: NCI tumour cell line growth inhibition, 48 h
reported metric: TGI (µM)
Provide the reading as a plain figure in µM.

COc1cc2c(cc1O)CCN[C@@]21CS[C@H]2c3c(OC(C)=O)c(C)c4c(c3C(COC1=O)N1C2C2NC(Cc3cc(C)c(OC)c(O)c32)[C@@H]1O)OCO4 (some centres undefined) = 0.0369
CC[C@@]1(O)C(=O)OCc2c1cc1n(c2=O)Cc2c-1nc1ccc(N)cc1c2CC[Si](C)(C)C = 2.02
COc1ccc(/C(=C(\c2ccccc2)[N+](=O)[O-])c2ccc(OCCN3CCCC3)cc2)cc1 = 24.2
CC1=C(C(=S)Nc2ccc(Cl)c(C(=O)OC(C)C)c2)SCCO1 = 43.2
CCOC(=O)Nc1cc2c(c(N)n1)N=C(c1ccc(Cl)cc1Cl)CN2 = 18.9

Consider the molecule shown here: CCCCCCCCCC(=O)Oc1ccc(/C(=C(/C)c2ccccc2)c2ccc(OCCN3CCCC3)cc2)cc1 What is its recorded TGI?
16.9

Now the molecule O=C(O)CCCCCNCc1cc2cc3c(cc2c2cc(OCc4ccccc4)ccc12)OCO3
11.1

Do the same for CCc1nnc2sc(-c3ccc(-c4ccccc4[N+](=O)[O-])o3)nn12 please
75.1

###

Test system: MDA-MB-435
Lab note: assign the record to one of label 1 = active, label 0 = inactive

O=C(O)CCCCCNCc1cc2cc3c(cc2c2cc(OCc4ccccc4)ccc12)OCO3 = label 0

For this compound, state the assay outcome: COc1ccc(/C(=C(\c2ccccc2)[N+](=O)[O-])c2ccc(OCCN3CCCC3)cc2)cc1
label 0

Same question for C=C1C(C)C2C(Cc3ccccc3)NC(=O)C23C(OC(C)=O)C=CC(C)(O)C(=O)C(C)C/C=C/C3C1O (centres undefined) please.
label 0

Continue with CC1OC(O[C@@H]2C=C3CC[C@@H]4[C@H](CC[C@]5(C)[C@@H](c6ccc(=O)oc6)CC[C@]45O)[C@@]3(C)CC2)C(O)C(O)C1O (some centres undefined)
label 1

###

Form field: TGI (one value per entry).
Tested on: HCT-116 colon
Test: NCI tumour cell line growth inhibition, 48 h
# number only, unit µM dropped from output

CO[C@H]1C[C@H](O[C@H]2CC[C@@]3(C)[C@H](CC[C@@H]4[C@@H]3CC[C@]3(C)[C@@H](C5=CC(=O)OC5)CC[C@]43O)C2)O[C@H](C)[C@H]1O = 0.0161

Item COc1ccc([C@@H]2[C@@H](Cl)C(=O)N2c2cc(OC)c(OC)c(OC)c2)cc1C has what recorded TGI?
11.4

###

Catalogue of TGI readings, one per entry.
Test system: SF-268 CNS
Experiment: NCI tumour cell line growth inhibition, 48 h
Respond numerically; units are µM and should not be typed.

COc1cc(F)c(F)c(Nc2ccc(I)cc2F)c1NS(=O)(=O)C1(CC(O)CO)CC1 (stereo not given) = 55

Any idea what TGI was measured for CC(=O)OC1CCC2(C)C(CCC3C2CCC2(C)C(c4ccc(=O)oc4)C(OC(C)=O)CC32O)C1 (stereo not given) ?
0.0341

###

Test system: K-562 leukemia
Experiment: NCI tumour cell line growth inhibition, 48 h
reported metric: TGI

Please review the following examples before continuing.
O=[N+]([O-])c1ccc(CSC2=C(c3ccc(Cl)cc3)S/C(=C3\SC(SCc4ccc([N+](=O)[O-])cc4)=C(c4ccc(Cl)cc4)S3)S2)cc1 = > 100 µM
Cc1c(CCCl)c(Cl)n2c(nc3ccccc32)c1C#N = 3.34 µM
CC(=O)OC1COC(N2C(=O)C(=O)c3ccccc32)C(OC(C)=O)C1OC(C)=O (centres undefined) = > 100 µM
CCOC(=O)c1cccc(N=NNc2cccc(C(=O)OCC)c2)c1 = > 100 µM
O=C1c2ccccc2-c2cn(Cc3ccccc3)c3cccc(c23)C1c1cccnc1 (centres undefined) = > 50 µM
N#C/C(=C/c1ccc([N+](=O)[O-])o1)c1ccccc1 = > 100 µM
Cc1ccc(NC(c2ccccc2)P(=O)(c2ccccc2)c2ccccc2)cc1 (centres undefined) = > 100 µM
COC(=O)c1sc(-n2cnc3cc(OC)c(OC)cc32)cc1OCc1ccccc1C(F)(F)F = > 25 µM

Please find the next compound below.
Consider the compound shown here: CC1=C(C(=S)Nc2ccc(Cl)c(C(=O)OC(C)C)c2)SCCO1 What is its recorded TGI?
43.6 µM

###

Test system: HT29 colon
Experiment: NCI tumour cell line growth inhibition, 48 h; in the data active = GI50 below about 0.43 µM; inactive = the rest
Give one outcome, nothing more. List: True (active), False (inactive)

Past entries and their recorded results:
COc1cc(F)c(F)c(Nc2ccc(I)cc2F)c1NS(=O)(=O)C1(CC(O)CO)CC1 (configuration not stated) = False
CN1CCN(Cc2ccc(NC(=O)c3cncc(C#Cc4c(N)ncc5ccccc45)c3)cc2C(F)(F)F)CC1 = True
O=C(c1ccccc1)c1nn(-c2cccc(Cl)c2)c2nc3nc(-c4ccccc4)cc(=O)n3nc12 = False
CC/C(=C/c1ccc(OC)cc1)[N+](=O)[O-] = False
Cc1c2ccncc2c(C)c2c1[nH]c1ccc(O)cc12 = False
O=C(NCCN1CCOCC1)c1cc2c(Oc3ccc(NC(=O)C4(C(=O)Nc5ccc(F)cc5)CC4)cc3)ccnc2[nH]1 = False
COC(=O)c1sc(-n2cnc3cc(OC)c(OC)cc32)cc1OCc1ccccc1C(F)(F)F = False
C=C(CN1CCN(c2cc(C(F)(F)F)cc(C(F)(F)F)c2)CC1)c1ccc(C(=O)Nc2ccccc2N)cc1 = False
COC(=O)[C@]12CC[C@@H](C)[C@H](C)[C@@H]1C1=CC[C@@H]3[C@@]4(C)C[C@@H](OC(C)=O)[C@H](OC(C)=O)[C@@](C)(COC(C)=O)[C@@H]4[C@H](O)C[C@@]3(C)[C@]1(C)CC2 = False
COc1cc(/C=N/NC(=O)c2cnn3c2NC(c2ccccc2)C3)ccc1OCc1ccccc1 (configuration not stated) = False

// return assay outcome for O=C(O)CN(CCN(CC(=O)O)CC(=O)O)CC(=O)O.[Cu+2].[Na+]
False

Then this compound: N#Cc1cnn(C(=O)c2nn(-c3ccc(Cl)cc3)cc2O)c1N
False

Please answer likewise for Cc1cnc(C(=O)Nc2nc3ccc(S(=O)(=O)Nc4ccc(C(C)(C)C)cc4)cc3[nH]2)cn1
True

And the next one, c1c2c(cc3c1OCO3)-c1ncc3cc4c(cc3c1C2)OCO4 ?
True

###

Test system: UACC-257 melanoma
Test: NCI tumour cell line growth inhibition, 48 h
reported metric: GI50

CCCCCn1sc(=O)n(Cc2ccc(CNC(=O)C(C)c3ccc(CC(C)C)cc3)cc2)c1=O (centres undefined) = 1.48 µM

Requested field: GI50. Item: CC/C(=C/c1ccc(OC)cc1)[N+](=O)[O-]
2.07 µM

Queued: COC(=O)c1sc(-n2cnc3cc(OC)c(OC)cc32)cc1OCc1ccccc1C(F)(F)F
> 25 µM

###

Below: a set of entries, each annotated with reported TGI.
System: HT29 colon
Experiment: NCI tumour cell line growth inhibition, 48 h
# value in µM; strip the unit string

Examples with answers:
CCOC(=O)c1c(N2CCN(C)CC2)[nH]c(=O)c(C(c2c(Cl)cccc2Cl)c2c(O)c(C(=O)OCC)c(N3CCN(C)CC3)[nH]c2=O)c1O = 39.1
Cc1ccc(C)c(N2CCN(c3ccncc3N)CC2)c1 = 26.3
CCCNC(=O)c1cc(OC)c(OC)cc1NC(=O)C12CC3CC(CC(C3)C1)C2 = 32.2

Below: the item to evaluate.
Sample COc1ccc(Cl)cc1NC(=O)O/N=C(\Cl)C(C)C — what was its TGI?
43.8

###

Test system: SR leukemia
Assay: NCI tumour cell line growth inhibition, 48 h
Param threshold (3 µM) applies to TGI; output 1.0 when value >= threshold, 0.0 when value < threshold.

Please review the entries below; each comes with its answer.
C/C(=C\COP(=O)(O)OP(=O)(O)O)CC/C=C(\C)CNc1c(F)c(F)c(F)c(F)c1F = 0.0
Cc1ccc2nc(CN(CCN(Cc3nc4ccc(C)cc4[nH]3)Cc3nc4ccc(C)cc4[nH]3)Cc3nc4ccc(C)cc4[nH]3)[nH]c2c1 = 1.0
COc1cc(/C=N/NC(=O)c2cnn3c2NC(c2ccccc2)C3)ccc1OCc1ccccc1 (configuration not stated) = 1.0
CCN(CC)C(=O)Cc1[nH][nH]c(=O)c1C(=O)N(CC)CC = 1.0
CCc1ccc([OH2+])c(C(=O)[O-])c1.CCc1ccc([OH2+])c(C(=O)[O-])c1.CCc1ccc([OH2+])c(C(=O)[O-])c1.CCc1ccc([OH2+])c(C(=O)[O-])c1.[Cu+2].[Cu+2] = 1.0

Dear colleague, could you confirm whether O=C(C=P(c1ccccc1)(c1ccccc1)c1ccccc1)c1ccccc1-c1ccccc1C(=O)C=P(c1ccccc1)(c1ccccc1)c1ccccc1 has TGI at or above 3 µM?
0.0

Could you do the same for c1ccc(-c2cc(-c3ccccc3)nc(-c3ccncc3)c2)cc1 , please?
1.0

Same read-out for C=CCSC1=N/C(=C\c2ccc(C)cc2)C(=O)N1CC=C ?
1.0

Ok, now CN(N=O)c1ccc(/C=C/c2ccnc3ccccc23)cc1
1.0

Consider next the compound CC[C@@]1(O)C(=O)OCc2c1cc1n(c2=O)Cc2c-1nc1ccc(N)cc1c2CC[Si](C)(C)C in the same way.
0.0

Next record, please: COc1cccc(/C=C\C(=O)c2ccccc2)c1
1.0

Same for NC1=Nc2ncccc2C(=O)NN1
1.0
